molecular target: HLA-B*15:03; assay: IEDB peptide-MHC binding, purified MHC/competitive/radioactivity; filed as Kd, often an IC50 or EC50 that approximates it; bounds were set here for any values at or beyond the usual limits of such assays; conditions: source organism: Vaccinia virus WR
Threshold 5 nM. Kd below it: class 1. Kd at it or above: class 0.

{"ITEM_SEQUENCE": "SLNTLTISF", "LABEL_CLASS": "class 0"}
{"ITEM_SEQUENCE": "ALLELFNAF", "LABEL_CLASS": "class 1"}
{"ITEM_SEQUENCE": "KSHAAYIDY", "LABEL_CLASS": "class 1"}
{"ITEM_SEQUENCE": "LSIFFYSSF", "LABEL_CLASS": "class 1"}
{"ITEM_SEQUENCE": "SKVFFGPIY", "LABEL_CLASS": "class 1"}
{"ITEM_SEQUENCE": "FLVDGLSSI", "LABEL_CLASS": "class 0"}
{"ITEM_SEQUENCE": "FQYVSYSNF", "LABEL_CLASS": "class 1"}
{"ITEM_SEQUENCE": "RQFYNANVL", "LABEL_CLASS": "class 1"}
{"ITEM_SEQUENCE": "AINNRICVM", "LABEL_CLASS": "class 0"}
{"ITEM_SEQUENCE": "MCIKYTACM", "LABEL_CLASS": "class 0"}
{"ITEM_SEQUENCE": "KQPEGVILF", "LABEL_CLASS": "class 1"}
{"ITEM_SEQUENCE": "IHIPQSQLF", "LABEL_CLASS": "class 0"}
{"ITEM_SEQUENCE": "IASTLIVTI", "LABEL_CLASS": "class 0"}

====

target: HLA-A*02:06; experiment: IEDB peptide-MHC binding, purified MHC/competitive/radioactivity; filed as Kd, often an IC50 or EC50 that approximates it; bounds were set here for any values at or beyond the usual limits of such assays; settings: source organism: Vaccinia virus WR
pKd: −log10 of the molar value.
pKd by entry:
QUANTITY_MEASURED: pKd

{"ITEM_SEQUENCE": "VTGSYNLVDT", "QUANTITY_MEASURED": "pKd", "RESULT": "≤ 4.16"}
{"ITEM_SEQUENCE": "AIKSNNHLT", "QUANTITY_MEASURED": "pKd", "RESULT": "≤ 4.11"}
{"ITEM_SEQUENCE": "PLPSLEYGA", "QUANTITY_MEASURED": "pKd", "RESULT": "≤ 4.37"}
{"ITEM_SEQUENCE": "EILSNTTKTL", "QUANTITY_MEASURED": "pKd", "RESULT": "≤ 4.16"}
{"ITEM_SEQUENCE": "VAKCCSKTNT", "QUANTITY_MEASURED": "pKd", "RESULT": "≤ 4.39"}
{"ITEM_SEQUENCE": "ELTSNCTRT", "QUANTITY_MEASURED": "pKd", "RESULT": "≤ 4.33"}

====

target: HLA-A*31:01; experiment: IEDB peptide-MHC binding, purified MHC/competitive/radioactivity; filed as Kd, often an IC50 or EC50 that approximates it; bounds were set here for any values at or beyond the usual limits of such assays; conditions: source organism: Vaccinia virus WR
Quick reference: Kd of the listed items.

{"ITEM_SEQUENCE": "PIFSDLLKY", "Kd": "≥ 56.9 µM"}
{"ITEM_SEQUENCE": "YVIRHVDGK", "Kd": "≥ 77.9 µM"}
{"ITEM_SEQUENCE": "ELNIVDEIIK", "Kd": "≥ 70 µM"}
